These data points were gathered from patent US20020032166A1.

# test summary: Partitioning of anionic compounds with arginine esters
# Format: physicochemical
# assay context: octanol/pH 5.5 buffer, pH 5.5, ester C12, detergent:anionic compound 3:1; solvent octanol; read-out: log p

| molecule | log p |
| --- | --- |
| Nc1ncnc2c1ncn2[C@@H]1O[C@H](COP(=O)(O)OP(=O)(O)OP(=O)(O)O)[C@@H](O)[C@H]1O [adenosine triphosphate] | 0.022 |

###

# test summary: Partitioning of anionic compounds with arginine esters
# Type: physicochemical
# assay context: octanol/pH 5.5 buffer, pH 5.5, ester C12, detergent:anionic compound 1:1; solvent octanol; read-out: log p

| compound | log p |
| --- | --- |
| Nc1ncnc2c1ncn2[C@@H]1O[C@H](COP(=O)(O)OP(=O)(O)OP(=O)(O)O)[C@@H](O)[C@H]1O [adenosine triphosphate] | -1.48 |
